Molecular target: BRAFV600E full-length (amino acids 2-766) (Homo sapiens, UniProt P15056, V600E)
Construct: His6-tagged BRAFV600E full-length (amino acids 2-766); His6; made in house; host or cells: baculovirus expression system (insect cells)
Sequence (P15056 2-766 V600E): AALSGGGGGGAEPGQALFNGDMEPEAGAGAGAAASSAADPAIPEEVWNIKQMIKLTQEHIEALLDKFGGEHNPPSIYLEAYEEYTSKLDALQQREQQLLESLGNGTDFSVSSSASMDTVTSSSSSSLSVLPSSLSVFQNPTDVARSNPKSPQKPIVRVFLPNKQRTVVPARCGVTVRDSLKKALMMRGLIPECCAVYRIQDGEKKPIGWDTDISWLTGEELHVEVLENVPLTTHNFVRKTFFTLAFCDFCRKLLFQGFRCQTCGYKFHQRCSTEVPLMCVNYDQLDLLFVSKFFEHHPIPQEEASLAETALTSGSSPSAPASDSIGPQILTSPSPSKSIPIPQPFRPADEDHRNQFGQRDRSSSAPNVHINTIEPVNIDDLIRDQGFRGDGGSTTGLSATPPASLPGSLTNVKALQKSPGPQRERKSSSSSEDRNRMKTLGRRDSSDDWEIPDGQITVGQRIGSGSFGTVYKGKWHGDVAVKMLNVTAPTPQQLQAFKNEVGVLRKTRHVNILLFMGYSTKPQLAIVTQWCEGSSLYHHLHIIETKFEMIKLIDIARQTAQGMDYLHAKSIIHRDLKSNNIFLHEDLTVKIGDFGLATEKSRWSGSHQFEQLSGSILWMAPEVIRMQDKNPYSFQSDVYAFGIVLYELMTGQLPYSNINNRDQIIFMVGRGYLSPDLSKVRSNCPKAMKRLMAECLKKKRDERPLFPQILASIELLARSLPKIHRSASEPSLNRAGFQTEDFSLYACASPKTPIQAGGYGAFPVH
Assay: B-Raf Accelerated MEK ATPase assay (BRAMA)
Type: biochemical
Settings: B-Raf pIC50, Table 1b; later runs, average pIC50 for the one or more runs, categorized
value.type: IC50

Observe how each entry below is paired with its result.
O=S(=O)(Nc1cccc(-c2nc(C3CCOCC3)sc2-c2ccnc(NCCN3CCOCC3)n2)c1F)c1ccoc1; ≤ 3.16 nM
CC(C)(C)c1nc(-c2cccc(NS(=O)(=O)c3cc(F)ccc3F)c2F)c(-c2ccnc(CCS(C)(=O)=O)n2)s1; ≤ 3.16 nM
CC(C)(C)c1nc(-c2c(F)ccc(NS(=O)(=O)c3c(F)cccc3F)c2F)c(-c2ccnc(N)n2)s1; ≤ 3.16 nM

We now examine a further compound.
Short answer for CC(C)c1nc(-c2ccc(F)c(NS(=O)(=O)c3cccc(F)c3)c2)c(-c2ccnc(N)n2)s1 : IC50 was 31.6 to 1000 nM

---

// reported IC50 per item
Target: BRAFV600E full-length (amino acids 2-766) (Homo sapiens, UniProt P15056, V600E)
Construct: His6-tagged BRAFV600E full-length (amino acids 2-766); His6; made in house; host or cells: baculovirus expression system (insect cells)
Experiment: B-Raf Accelerated MEK ATPase assay (BRAMA)
Assay type: biochemical
Details: B-Raf Activity, Table 1a; highest pIC50 for the one or more runs, categorized

COCCNc1nccc(-c2sc(C(C)C)nc2-c2ccc(F)c(NS(=O)(=O)c3c(F)cccc3F)c2)n1; 100 to 1000 nM
Nc1nccc(-c2sc(C3CCC3)nc2-c2cccc(NS(=O)(=O)c3cc(F)ccc3F)c2F)n1; < 100 nM
CC(C)CNc1nccc(-c2sc(C(C)(C)C)nc2-c2cccc(NS(=O)(=O)c3cc(F)ccc3F)c2)n1; < 100 nM

// IC50 value for Nc1nccc(-c2sc(N3CCOCC3)nc2-c2c(F)ccc(NS(=O)(=O)c3c(F)cccc3F)c2F)n1 : < 100 nM

---

Biological target: BRAFV600E full-length (amino acids 2-766) (Homo sapiens, UniProt P15056, V600E)
Construct: His6-tagged BRAFV600E full-length (amino acids 2-766); His6; made in house; host or cells: baculovirus expression system (insect cells)
Test: B-Raf Accelerated MEK ATPase assay (BRAMA)
Format: biochemical
Settings: B-Raf pIC50, Table 1b; later runs, average pIC50 for the one or more runs, categorized
value.type: IC50

CC(C)c1nc(-c2cccc(NS(=O)(=O)c3nccs3)c2F)c(-c2ccnc(NC3CCN(S(C)(=O)=O)CC3)n2)s1; ≤ 3.16 nM
O=S(=O)(Nc1cccc(-c2nc(N3CCOCC3)sc2-c2ccnc(NCCO)n2)c1F)c1cc(F)ccc1F; ≤ 3.16 nM
CC(=O)NCCNc1nccc(-c2sc(C(C)C)nc2-c2ccc(F)c(NS(=O)(=O)c3c(F)cccc3F)c2)n1; 31.6 to 1000 nM

Okay, next one:
IC50 reading for Nc1nccc(-c2oc(N3CCCC3)nc2-c2cccc(NS(=O)(=O)c3c(F)cccc3F)c2)n1 : 31.6 to 1000 nM
